tested on: Pseudomonas aeruginosa; assay type: cell-based; conditions: Pseudomonas aeruginosa, LB medium, 24 hours at 37° C.; read-out: IC50
Where no end group is shown, it is not given here.
Property Name: pIC50
Please keep in mind that pIC50 is minus log10 of the molar concentration; only the number is needed.

GET /value?item= KRLFRKILKYLR [SEQ ID NO: 6] &field=pIC50 returns 5.40

Record summary for RKLFKRILRYLK [SEQ ID NO: 5] : reported pIC50 = 5.05

Notebook: RRLFRRILRYLR [SEQ ID NO: 2] , pIC50 read as 5.00

Summary for this sequence, RKLFRKILKYLR [SEQ ID NO: 8] : pIC50 is 5.30
